Entries and their measured fraction ligated follow.
B1: F1*; the commonest letter at each place (parent)
chain: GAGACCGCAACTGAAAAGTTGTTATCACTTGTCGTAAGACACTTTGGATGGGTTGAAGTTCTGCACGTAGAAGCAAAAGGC

variants of: B1; assay: fraction ligated after 30 min (ligated reads / total reads); higher = more ligase activity; conditions: with F1*sub RNA substrate (template-directed ligation), 42 °C
No unit in the answer, only the number.

Worked examples follow.
## Task # lookup: fraction ligated of A36T T49G
## Result 0.797

## Task Also T32G A37C , if possible.
## Result 0.815

## Task Now give it for T23A A27C too.
## Result 0.82

## Task Okay, and A36T C40A ?
## Result 0.823

## Task Now try C28T G38T .
## Result 0.795

Below: the item to evaluate.
## Task Form field: reported fraction ligated of T25C A37G
## Result 0.812
